Each recorded value in this set is attributed to patent US20240300975A1.

- assay.overview: Solubility study (HPLC-UV, 24 h shaking)
- Format: physicochemical
- stated.conditions: 25 °C, aqueous buffer, kinetic from dmso stock, 50 mM phosphate buffer pH 7.4, 25±2° C., 2% DMSO, max 200 μM, read-out: Solubility pH = 7.4
- Description: The solubility of a compound was determined to evaluate the solubility property of the compound. […]
value.type: solubility at 24 h (µM)
Write down the numeric answer in µM and omit the unit.

Ask: Reported solubility at 24 h for Cc1cccc(CN2C(=O)c3nc(-c4nc(Nc5ccnn5C)ncc4C)sc3C2(C)C)n1 : what is it?
Reply: 7.08

* * *

- assay.overview: In vivo PK study in SD rats
- stated.conditions: rat, po; male SD rats, 10 mg/kg orally, plasma
- Protocol: Male SD rats were used as assay animals. After a single administration, the plasma concentration of the compound was measured and the pharmacokinetic behavior was evaluated. Six healthy adult male SD rats were selected, wherein 3 rats were in an intravenous injection group and 3 rats were in an oral group. The vehicle in the intravenous injection group was 5% DMSO+95% (20% HP-β-CD). […] The clear solution was filtered by a microporous membrane, and then ready for use. […]
value.type: Cmax (nM)
Write down the numeric answer in nM and omit the unit.

Ask: Reported Cmax for Cc1cccc(CN2C(=O)c3nc(-c4nc(Nc5ccnn5C)ncc4C)sc3C2(C)C)n1 : what is it?
Reply: 1010
